target.entity: Phosphodiesterase 4 (Rattus norvegicus, UniProt P14270+P14646+P14644+P54748)
experiment.description: Inhibition of rolipram binding in rat brain tissue
Assay type: tissue-based
recorded.metric: log10 IC50 (log10 of the value in nM)

chem_smiles=COc1ccc(C(=O)Nc2ncccc2C)c2cc(C(C)=O)oc12 reported_value=3.27
chem_smiles=COc1ccc(C(=O)Nc2ccncc2Cl)c2cc(C(C)=O)oc12 reported_value=1.51
chem_smiles=COc1ccc(C(=O)Nc2c(Cl)cncc2Cl)c2c(C)c(C(C)=O)oc12 reported_value=2.20
chem_smiles=COc1ccc(C(=O)Nc2ncncc2Cl)c2cc(C(C)=O)oc12 reported_value=1.78
chem_smiles=COc1ccc(C(=O)N(C)c2c(Cl)cncc2Cl)c2cc(C(C)=O)oc12 reported_value=2.18
chem_smiles=COc1ccc(C(=O)Nc2c(Cl)cc(C#N)cc2Cl)c2cc(C(C)=O)oc12 reported_value=2.36
chem_smiles=COc1ccc(C(=O)Nc2ccncc2)c2cc(C(C)=O)oc12 reported_value=2.40
chem_smiles=COc1ccc(C(=O)Nc2cccnc2Cl)c2cc(C(C)=O)oc12 reported_value=2.30

All values here come from ChEMBL document CHEMBL1132733.
